- Experimental target: Endothelin receptor type B (Homo sapiens, UniProt P24530)
- Sequence (P24530 whole entry): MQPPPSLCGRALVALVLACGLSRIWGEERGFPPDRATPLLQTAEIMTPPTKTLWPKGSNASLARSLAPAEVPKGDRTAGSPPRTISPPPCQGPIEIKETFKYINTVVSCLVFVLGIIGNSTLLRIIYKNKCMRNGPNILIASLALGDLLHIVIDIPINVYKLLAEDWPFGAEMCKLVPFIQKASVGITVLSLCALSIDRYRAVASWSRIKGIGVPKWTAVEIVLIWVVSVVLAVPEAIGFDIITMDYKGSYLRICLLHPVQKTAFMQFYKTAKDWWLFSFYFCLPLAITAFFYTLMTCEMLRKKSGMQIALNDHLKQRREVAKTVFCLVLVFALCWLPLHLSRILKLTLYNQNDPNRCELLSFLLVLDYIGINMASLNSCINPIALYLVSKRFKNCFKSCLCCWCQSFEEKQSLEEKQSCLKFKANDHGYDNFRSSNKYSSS
# strict inequality: IC50 < 30 µM yields condition met, everything else yields condition not met

Compound: CCc1ccc(NC(=O)c2sccc2S(=O)(=O)Nc2onc(C)c2Br)cc1
Experimental target: Endothelin receptor type B (Homo sapiens, UniProt P24530)
Discrete label: condition met

**Q:** Is IC50 of `Cc1noc(NS(=O)(=O)c2ccsc2C(N)=O)c1Br` strictly below 30 µM?
**A:** condition not met

**Q:** And the next one, `Cc1noc(NS(=O)(=O)c2ccsc2C(=O)Nc2ccc(-c3ccccc3)cc2)c1Br` ?
**A:** condition met

**Q:** Same question, `Cc1noc(NS(=O)(=O)c2ccsc2C(=O)Nc2cccc(O)c2)c1Br` this time
**A:** condition not met

**Q:** Cool, now `COc1cccc(NCc2sccc2S(=O)(=O)Nc2onc(C)c2Br)c1`
**A:** condition met

**Q:** // repeat for `CC(=O)OCCOc1cc2c(cc1NC(=O)c1sccc1S(=O)(=O)Nc1onc(C)c1Cl)OCO2` and report
**A:** condition met

**Q:** Same for `Cc1noc(NS(=O)(=O)c2ccsc2C(=O)Nc2cc3c(cc2CC#N)OCO3)c1Cl`
**A:** condition met

**Q:** // query: `Cc1ccc(NC(=O)c2sccc2S(=O)(=O)Nc2onc(C)c2Cl)c(O)c1`
**A:** condition met

**Q:** Now the molecule `Cc1ccc(NC(=O)c2sccc2S(=O)(=O)Nc2onc(C)c2Cl)nc1`
**A:** condition not met

* * *

- Experimental target: Endothelin-1 receptor (Homo sapiens)
- Sequence (P25101 whole entry): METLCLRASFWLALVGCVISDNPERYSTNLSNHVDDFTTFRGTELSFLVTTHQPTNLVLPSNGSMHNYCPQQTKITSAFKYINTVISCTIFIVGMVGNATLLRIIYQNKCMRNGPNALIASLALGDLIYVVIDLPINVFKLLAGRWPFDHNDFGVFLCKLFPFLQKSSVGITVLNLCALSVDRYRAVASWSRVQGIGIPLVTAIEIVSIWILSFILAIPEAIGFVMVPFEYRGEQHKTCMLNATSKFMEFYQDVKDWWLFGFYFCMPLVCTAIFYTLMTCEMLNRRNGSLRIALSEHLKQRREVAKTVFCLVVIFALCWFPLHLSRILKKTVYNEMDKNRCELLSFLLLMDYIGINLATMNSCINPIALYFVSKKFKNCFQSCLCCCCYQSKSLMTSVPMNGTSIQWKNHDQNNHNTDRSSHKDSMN
- Test description: In vitro inhibition of endothelin binding to human Endothelin A receptor using [125I]-labeled ET-1 competition assay
pIC50: −log10 of the molar value.
The label depends only on pIC50: met if it is at least 8, not met if it is smaller.

Compound: Cc1noc(NS(=O)(=O)c2ccsc2C(=O)Nc2cc3c(cc2C#N)OCO3)c1Cl
Discrete label: met

Compound: CCCCc1ccc(NC(=O)c2sccc2S(=O)(=O)Nc2onc(C)c2Br)cc1
Discrete label: not met

Moving on to another molecule below.
**Q:** Hi, just wondering whether `Cc1noc(NS(=O)(=O)c2ccsc2C(=O)Nc2ccc(C(C)C)cc2)c1Br` shows pIC50 of 8 or higher.
**A:** not met
